# tgt: 5-HT2C receptor (Homo sapiens (Human), UniProt P28335)
# Sequence (P28335 33-458): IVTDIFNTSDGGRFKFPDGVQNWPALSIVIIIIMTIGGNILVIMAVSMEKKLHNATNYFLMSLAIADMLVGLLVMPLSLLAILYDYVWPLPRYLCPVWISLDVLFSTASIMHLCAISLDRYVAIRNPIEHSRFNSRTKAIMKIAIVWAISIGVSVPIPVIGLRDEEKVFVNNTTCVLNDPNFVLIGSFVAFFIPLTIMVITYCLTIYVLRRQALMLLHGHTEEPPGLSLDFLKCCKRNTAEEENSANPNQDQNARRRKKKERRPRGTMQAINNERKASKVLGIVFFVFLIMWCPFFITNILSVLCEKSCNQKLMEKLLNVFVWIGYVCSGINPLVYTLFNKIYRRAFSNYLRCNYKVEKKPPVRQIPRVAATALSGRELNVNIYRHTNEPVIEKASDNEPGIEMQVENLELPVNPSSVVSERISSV
# test: IP accumulation assay, 5-HT2C
# Assay type: cell-based
# measurementContext: IP accumulation, HEK293 cells, 2 h at RT; read-out: EC50 5HT2C

compound	EC50 / µM
c1cc(-c2ccc3c(c2)OCO3)c2c(n1)N1CCNC[C@H]1CC2 [Compound 101]	7.51
c1cnc2c(c1)CC[C@@H]1CNCCN21 [Compound 148]	0.0934
c1cc(C2CCCCC2)c2c(n1)N1CCNC[C@H]1CC2 [Compound 127]	1.51
CCCC(=O)Nc1ccnc2c1CC[C@@H]1CNCCN21 [Compound 125]	100
O=C(Nc1ccnc2c1CC[C@@H]1CNCCN21)c1ccccc1Cl [Compound 104]	100
